# System: human soluble guanylate cyclase alpha 1 and beta 1 subunits (sGC) (Homo sapiens, UniProt Q02108+Q02153)
# Sequence (Q02108 whole entry): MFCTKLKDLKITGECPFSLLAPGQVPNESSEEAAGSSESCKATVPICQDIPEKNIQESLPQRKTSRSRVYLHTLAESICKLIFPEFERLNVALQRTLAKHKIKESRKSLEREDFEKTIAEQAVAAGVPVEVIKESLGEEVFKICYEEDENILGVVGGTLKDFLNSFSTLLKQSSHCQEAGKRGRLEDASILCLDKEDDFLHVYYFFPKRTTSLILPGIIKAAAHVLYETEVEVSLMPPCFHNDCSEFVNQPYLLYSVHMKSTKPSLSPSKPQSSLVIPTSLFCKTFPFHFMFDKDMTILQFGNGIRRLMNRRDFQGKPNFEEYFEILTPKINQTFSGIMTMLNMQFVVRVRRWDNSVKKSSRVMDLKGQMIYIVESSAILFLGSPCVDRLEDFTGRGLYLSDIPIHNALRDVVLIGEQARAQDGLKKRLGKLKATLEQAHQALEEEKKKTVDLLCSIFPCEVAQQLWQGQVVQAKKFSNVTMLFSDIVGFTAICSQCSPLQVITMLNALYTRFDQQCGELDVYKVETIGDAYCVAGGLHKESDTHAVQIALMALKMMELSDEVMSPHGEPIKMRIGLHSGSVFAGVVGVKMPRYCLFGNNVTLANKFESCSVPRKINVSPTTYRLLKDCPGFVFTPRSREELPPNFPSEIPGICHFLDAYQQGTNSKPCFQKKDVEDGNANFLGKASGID
# Sequence (Q02153 whole entry): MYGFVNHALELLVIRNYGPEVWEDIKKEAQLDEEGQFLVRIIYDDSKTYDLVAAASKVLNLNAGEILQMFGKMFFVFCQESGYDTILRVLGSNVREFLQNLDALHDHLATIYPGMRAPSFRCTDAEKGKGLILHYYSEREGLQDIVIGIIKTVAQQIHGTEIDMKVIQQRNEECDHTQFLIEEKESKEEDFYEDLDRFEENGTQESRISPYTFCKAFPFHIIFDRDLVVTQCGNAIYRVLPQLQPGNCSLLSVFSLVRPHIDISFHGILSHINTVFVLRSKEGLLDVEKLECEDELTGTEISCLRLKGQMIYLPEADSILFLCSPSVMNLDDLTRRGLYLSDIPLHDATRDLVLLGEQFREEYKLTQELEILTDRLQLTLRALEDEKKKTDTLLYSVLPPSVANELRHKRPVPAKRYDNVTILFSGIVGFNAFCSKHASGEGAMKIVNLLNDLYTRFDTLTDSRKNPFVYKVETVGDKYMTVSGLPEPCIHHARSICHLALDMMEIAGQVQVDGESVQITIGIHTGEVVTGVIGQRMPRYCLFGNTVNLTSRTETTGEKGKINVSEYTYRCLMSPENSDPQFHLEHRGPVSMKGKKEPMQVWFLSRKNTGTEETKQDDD
# Experiment: sGC cellular activator assay (cGMP, HTRF)
# Condition Info: CHO cells stably expressing human sGC alpha 1/beta 1, preincubated with 40 microM ODQ; cGMP readout; assay run with and without 50% human serum, Table 2 does not say which
Assign pEC50 to each entry below.
Expect pEC50 as a plain number equal to -log10 of the molar concentration.

# lookup: pEC50 of COc1c(C(=O)O)cnn1-c1cccc(-c2cccc(C)c2OCc2ccc3c(c2C)CCN(C[C@H]2COCCO2)C3)n1
7.21

# lookup: pEC50 of COc1c(C(=O)O)cnn1-c1cccc(-c2cccc(C)c2OCc2ccc3c(c2)CCN(C(C)C)C3)n1
6.74

# lookup: pEC50 of CCOc1c(C(=O)O)cnn1-c1cccc(-c2cccc(C)c2OCc2ccc3c(c2)CCN(C2COC2)CC3)n1
7.41

# lookup: pEC50 of COc1c(C(=O)O)cnn1-c1cccc(-c2cccc(C)c2OCc2ccc3c(c2)CCN([C@H]2CC[C@@]4(CCCO4)CC2)C3)n1
6.96

# lookup: pEC50 of Cc1cccc(-c2cccc(-n3ncc(C(=O)O)c3OC(C)C)n2)c1OCc1ccc2c(c1)CCN(C1COC1)C2
7.77

# lookup: pEC50 of COc1c(C(=O)O)cnn1-c1cccc(-c2cccc(F)c2OCc2ccc3c(c2)CCN(C2CCOCC2)C3)n1
7.09

# lookup: pEC50 of COc1c(C(=O)O)cnn1-c1cccc(-c2cccc(C)c2OCc2cc(C)c3c(c2)CCN(C2CCOC2)C3)n1 (centres unmarked)
7.96

# lookup: pEC50 of COc1c(C(=O)O)cnn1-c1cccc(-c2cccc(C)c2OCc2ccc3c(c2F)CCN(C[C@H]2COCCO2)C3)n1
7.89

# lookup: pEC50 of COc1c(C(=O)O)cnn1-c1cccc(-c2cccc(C)c2OCc2ccc3c(c2C)CCN(C[C@@H]2CCCO2)CC3)n1
8.07

# lookup: pEC50 of CCOc1c(C(=O)O)cnn1-c1cccc(-c2cccc(C)c2OCc2ccc3c(c2)CCN(C(C)CF)C3)n1 (centres unmarked)
7.27

# lookup: pEC50 of CCOc1c(C(=O)O)cnn1-c1cccc(-c2cccc(C)c2OCc2ccc3c(c2C)CCN(C(CO)CO)C3)n1
6.14

# lookup: pEC50 of COc1c(C(=O)O)cnn1-c1cccc(-c2cccc(C)c2OCc2ccc3c(c2Cl)CCN(C2CCOC2)C3)n1 (centres unmarked)
7.85

# lookup: pEC50 of COc1c(C(=O)O)cnn1-c1cccc(-c2cccc(C)c2OCc2ccc3c(c2C)CCN(C2CCOC2)C3)n1 (centres unmarked)
7.72

# lookup: pEC50 of Cc1cccc(-c2cccc(-n3ncc(C(=O)O)c3OC(C)C)n2)c1OCc1ccc2c(c1)CCN(C1CCOCC1)C2
7.41
